Listing: IC50 of selected molecules
STUDY_TARGET: recombinant human PDE5 (Homo sapiens, UniProt O76074)
Construct: purchased BPS Biosciences, San Diego, CA, USA
EXPERIMENT_DESCRIPTION: In vitro PDE5 inhibitory activity (IMAP FP phosphodiesterase assay)
Type: biochemical
APPLIED_CONDITIONS: purified PDE5, 50 nM TAMRA-cGMP, 1.5 h at 30 °C; 10 concentrations, at least two replicates; read-out: PDE5 Inhibition IC50
Field: numeric (µM). Do not append units.

Task item: What IC50 appears in the records for this molecule with recombinant human PDE5 (Homo sapiens, UniProt O76074)? O=C1[C@H]2Cc3c([nH]c4ccccc34)[C@@H](c3ccc(Cl)cc3)N2C(=O)CN1CCCCO [Compound 6c]
Reply: 0.12

Task item: Reported IC50 for recombinant human PDE5 (Homo sapiens, UniProt O76074), given O=C1[C@H]2Cc3c([nH]c4ccccc34)[C@@H](c3ccc(Br)cc3)N2C(=O)CN1CCCCO [Compound 7c] ?
Reply: 0.1

Task item: API: value(readout= IC50, system= recombinant human PDE5 (Homo sapiens, UniProt O76074), query= O=C1[C@H]2Cc3c([nH]c4ccccc34)[C@@H](c3ccc(Br)cc3)N2C(=O)CN1CCO [Compound 7a] )
Reply: 0.84

Task item: # query: IC50 | item O=C1[C@@H]2Cc3c([nH]c4ccccc34)[C@H](c3ccc(Cl)cc3)N2C(=O)CN1CCCCO [Compound 6k] | system: recombinant human PDE5 (Homo sapiens, UniProt O76074)
Reply: 2.31

Task item: Form field - read-out: IC50; system: recombinant human PDE5 (Homo sapiens, UniProt O76074); submitted item: NCCCCN1CC(=O)N2[C@H](c3ccc(Br)cc3)c3[nH]c4ccccc4c3C[C@H]2C1=O [Compound 7p]
Reply: 3.5

###

OUTCOME_MEASURE: melting point

[[record]]
mol = "O=C1[C@@H]2Cc3c([nH]c4ccccc34)[C@H](c3ccc(Cl)cc3)N2C(=O)CN1CCCCO"
outcome_measure = "melting point"
reading = "227 to 229 °C"


Task item: # melting point lookup, item O=C1[C@@H]2Cc3c([nH]c4ccccc34)[C@@H](c3ccc(Cl)cc3)N2C(=O)CN1CCO
Reply: 202 to 206 °C

###

Attribute: melting point

[[record]]
mol = "O=C1[C@H]2Cc3c([nH]c4ccccc34)[C@@H](c3ccc(Cl)cc3)N2C(=O)CN1CCCCO"
outcome_measure = "melting point"
reading = "228 to 230 °C"

[[record]]
mol = "O=C1[C@H]2Cc3c([nH]c4ccccc34)[C@H](c3ccc(Cl)cc3)N2C(=O)CN1CCCCO"
outcome_measure = "melting point"
reading = "200 to 203 °C"

[[record]]
mol = "NCCN1CC(=O)N2[C@@H](c3ccc(Cl)cc3)c3[nH]c4ccccc4c3C[C@@H]2C1=O"
outcome_measure = "melting point"
reading = "200 to 204 °C"

[[record]]
mol = "NCCN1CC(=O)N2[C@@H](c3ccc(Cl)cc3)c3[nH]c4ccccc4c3C[C@H]2C1=O"
outcome_measure = "melting point"
reading = "231 to 233 °C"

[[record]]
mol = "O=C1[C@H]2Cc3c([nH]c4ccccc34)[C@@H](c3ccc(Cl)cc3)N2C(=O)CN1CCO"
outcome_measure = "melting point"
reading = "230 to 233 °C"

[[record]]
mol = "O=C1[C@@H]2Cc3c([nH]c4ccccc34)[C@@H](c3ccc(Cl)cc3)N2C(=O)CN1CCCCO"
outcome_measure = "melting point"
reading = "199 to 203 °C"


# input for lookup
Task item: What value of melting point has been recorded for this entry: O=C1[C@@H]2Cc3c([nH]c4ccccc34)[C@H](c3ccc(Cl)cc3)N2C(=O)CN1CCO
Reply: 231 to 233 °C

###

STUDY_TARGET: recombinant human PDE5 (Homo sapiens)
EXPERIMENT_DESCRIPTION: In vitro PDE5 inhibitory activity (IMAP FP phosphodiesterase assay)
APPLIED_CONDITIONS: purified PDE5, 50 nM TAMRA-cGMP, 1.5 h at 30 °C; 10 concentrations, at least two replicates; read-out: PDE5 Inhibition IC50
The reader will find reported IC50 values listed item by item below.

Task item: Given O=C1[C@H]2Cc3c([nH]c4ccccc34)[C@H](c3ccc(Br)cc3)N2C(=O)CN1CCO , state its recorded IC50.
Reply: > 10 µM

Task item: Fill in: IC50 of O=C1[C@@H]2Cc3c([nH]c4ccccc34)[C@H](c3ccc(Br)cc3)N2C(=O)CN1CCCCO is ___
Reply: > 10 µM

Task item: Look at this compound and give its reported IC50. NCCCCN1CC(=O)N2[C@@H](c3ccc(Cl)cc3)c3[nH]c4ccccc4c3C[C@H]2C1=O
Reply: > 10 µM

Task item: Any idea what its IC50 is? The compound is NCCN1CC(=O)N2[C@@H](c3ccc(Br)cc3)c3[nH]c4ccccc4c3C[C@@H]2C1=O
Reply: > 10 µM

Task item: Looking for the measured IC50 of NCCN1CC(=O)N2[C@@H](c3ccc(Cl)cc3)c3[nH]c4ccccc4c3C[C@H]2C1=O , can you help?
Reply: > 10 µM

Task item: Return reported IC50; argument: NCCN1CC(=O)N2[C@@H](c3ccc(Cl)cc3)c3[nH]c4ccccc4c3C[C@@H]2C1=O
Reply: > 10 µM

Task item: Looking for the measured IC50 of NCCN1CC(=O)N2[C@H](c3ccc(Br)cc3)c3[nH]c4ccccc4c3C[C@@H]2C1=O , can you help?
Reply: 2.4 µM

Task item: I would be grateful if you could share the reported IC50 for NCCCCN1CC(=O)N2[C@@H](c3ccc(Br)cc3)c3[nH]c4ccccc4c3C[C@@H]2C1=O .
Reply: 3.2 µM

Task item: Consider the compound O=C1[C@H]2Cc3c([nH]c4ccccc34)[C@H](c3ccc(Cl)cc3)N2C(=O)CN1CCO and give its measured IC50.
Reply: 4.7 µM

Task item: What does the record list as IC50 for O=C1[C@@H]2Cc3c([nH]c4ccccc34)[C@H](c3ccc(Br)cc3)N2C(=O)CN1CCO ?
Reply: > 10 µM

###

Listed compounds paired with reported melting point

Solved cases (2 shown):
[[record]]
compound = "NCCN1CC(=O)N2[C@H](c3ccc(Cl)cc3)c3[nH]c4ccccc4c3C[C@H]2C1=O [Compound 6n]"
reading = "200 to 204 °C"

[[record]]
compound = "NCCN1CC(=O)N2[C@H](c3ccc(Cl)cc3)c3[nH]c4ccccc4c3C[C@@H]2C1=O [Compound 6b]"
reading = "231 to 234 °C"


Task item: Given the compound NCCCCN1CC(=O)N2[C@@H](c3ccc(Cl)cc3)c3[nH]c4ccccc4c3C[C@@H]2C1=O [Compound 6h] , what is its reported melting point?
Reply: 200 to 202 °C

Task item: Would you mind telling me what melting point value was observed for O=C1[C@H]2Cc3c([nH]c4ccccc34)[C@H](c3ccc(Cl)cc3)N2C(=O)CN1CCO [Compound 6e] ?
Reply: 202 to 206 °C

###

Reported values of pIC50 for individual entries
STUDY_TARGET: recombinant human PDE5 (Homo sapiens, UniProt O76074)
Construct: purchased BPS Biosciences, San Diego, CA, USA
EXPERIMENT_DESCRIPTION: In vitro PDE5 inhibitory activity (IMAP FP phosphodiesterase assay)
Type: biochemical
APPLIED_CONDITIONS: purified PDE5, 50 nM TAMRA-cGMP, 1.5 h at 30 °C; 10 concentrations, at least two replicates; read-out: PDE5 Inhibition IC50
Protocol: Phosphodiesterase Assay: 5 U/mL of purified PDE5 (BPS Biosciences, San Diego, CA, USA) was added to the wells of black 96-well non-binding plates. […] FP was measured according to manufacturer’s specifications using a Biotech Synergy 4 plate reader. […] All the synthesized final THβC compounds were tested for their ability to inhibit recombinant human PDE5. Most of the compounds were evaluated in two steps. […]
Scale note: pIC50 = -log10(concentration in M).

Consider the reported pIC50 for these molecules:
[[record]]
mol = "O=C1[C@@H]2Cc3c([nH]c4ccccc34)[C@@H](c3ccc(Br)cc3)N2C(=O)CN1CCCCO"
reading = 6.09

[[record]]
mol = "NCCN1CC(=O)N2[C@H](c3ccc(Br)cc3)c3[nH]c4ccccc4c3C[C@H]2C1=O"
reading = 6.05

[[record]]
mol = "NCCCCN1CC(=O)N2[C@@H](c3ccc(Cl)cc3)c3[nH]c4ccccc4c3C[C@@H]2C1=O"
reading = 5.51


Okay, next one:
Task item: I'd like to know its pIC50. The molecule in question is O=C1[C@@H]2Cc3c([nH]c4ccccc34)[C@@H](c3ccc(Cl)cc3)N2C(=O)CN1CCCCO
Reply: 5.64

###

// reported pIC50 for each item listed
STUDY_TARGET: recombinant human PDE5 (Homo sapiens, UniProt O76074)
EXPERIMENT_DESCRIPTION: In vitro PDE5 inhibitory activity (IMAP FP phosphodiesterase assay)
APPLIED_CONDITIONS: purified PDE5, 50 nM TAMRA-cGMP, 1.5 h at 30 °C; 10 concentrations, at least two replicates; read-out: PDE5 Inhibition IC50
pIC50: −log10 of the molar value.

[[record]]
mol = "O=C1[C@H]2Cc3c([nH]c4ccccc34)[C@@H](c3ccc(Cl)cc3)N2C(=O)CN1CCO"
reading = "< 5.00"

[[record]]
mol = "NCCN1CC(=O)N2[C@H](c3ccc(Cl)cc3)c3[nH]c4ccccc4c3C[C@H]2C1=O"
reading = "< 5.00"

[[record]]
mol = "NCCCCN1CC(=O)N2[C@H](c3ccc(Cl)cc3)c3[nH]c4ccccc4c3C[C@@H]2C1=O"
reading = "< 5.00"

[[record]]
mol = "NCCN1CC(=O)N2[C@@H](c3ccc(Br)cc3)c3[nH]c4ccccc4c3C[C@H]2C1=O"
reading = "< 5.00"

[[record]]
mol = "NCCCCN1CC(=O)N2[C@@H](c3ccc(Br)cc3)c3[nH]c4ccccc4c3C[C@H]2C1=O"
reading = "< 5.00"


// next entry
Task item: Record request: pIC50 value, item NCCCCN1CC(=O)N2[C@H](c3ccc(Cl)cc3)c3[nH]c4ccccc4c3C[C@H]2C1=O
Reply: < 5.00
